# TARGET UNDER TEST: human P2X2/3 receptors (Homo sapiens, UniProt P56373+Q9UBL9)
# Construct: expressed in transfected cells; host or cells: human astrocytoma 1321N1 (1312N1 [sic])
# Sequence (P56373 1-397): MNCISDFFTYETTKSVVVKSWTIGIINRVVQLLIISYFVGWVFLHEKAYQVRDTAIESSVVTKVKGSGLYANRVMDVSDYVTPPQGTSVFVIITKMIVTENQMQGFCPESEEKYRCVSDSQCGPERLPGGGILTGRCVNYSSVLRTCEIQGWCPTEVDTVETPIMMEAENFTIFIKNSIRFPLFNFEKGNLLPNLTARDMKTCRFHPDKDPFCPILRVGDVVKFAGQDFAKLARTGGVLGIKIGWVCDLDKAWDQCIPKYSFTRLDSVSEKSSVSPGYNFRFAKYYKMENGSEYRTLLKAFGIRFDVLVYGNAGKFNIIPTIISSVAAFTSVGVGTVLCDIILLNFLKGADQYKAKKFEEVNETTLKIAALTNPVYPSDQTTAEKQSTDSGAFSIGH
# Sequence (Q9UBL9 1-471): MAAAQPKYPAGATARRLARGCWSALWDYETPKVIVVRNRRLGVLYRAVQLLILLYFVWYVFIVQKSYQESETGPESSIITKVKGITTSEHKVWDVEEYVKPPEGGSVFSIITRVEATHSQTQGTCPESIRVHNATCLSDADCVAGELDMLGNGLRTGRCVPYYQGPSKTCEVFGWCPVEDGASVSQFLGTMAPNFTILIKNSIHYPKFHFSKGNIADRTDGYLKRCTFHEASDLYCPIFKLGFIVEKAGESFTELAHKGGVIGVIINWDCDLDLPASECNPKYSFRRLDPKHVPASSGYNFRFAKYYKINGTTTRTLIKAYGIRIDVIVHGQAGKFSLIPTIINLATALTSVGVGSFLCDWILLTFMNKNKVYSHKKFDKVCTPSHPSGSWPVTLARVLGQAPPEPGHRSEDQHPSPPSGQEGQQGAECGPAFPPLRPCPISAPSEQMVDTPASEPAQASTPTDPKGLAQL
# PROCEDURE TEXT: Intracellular calcium measurement, antagonist activity at human P2X2/3 receptors (hP2X23 1321N1), Fluo8
# Format: cell-based
# CONDITION SUMMARY: ratio of column 4) hP2X2/3 to column 3) hP2X3, 1321N1
QUANTITY: hP2X23/hP2X3* Selectivity (1321N1)

> print(dat)
                                   compound  assay.result
1  CCc1cc2n(CC(=O)Nc3ccc(Cl)cn3)c3c(c(=O)n2n1)CN(C(C)C)C3=O [Example 66]            98

(A) COC[C@H](C)N1Cc2c(n(CC(=O)Nc3ccc(F)cn3)c3cc(-c4ccc(C)nc4)nn3c2=O)C1=O [Example 151]
(B) CCc1cc2n(CC(=O)Nc3ccc(F)cn3)c3c(c(=O)n2n1)CN(CCNC(=O)OC(C)(C)C)C3=O [Example 68]
(C) CC(C)N1Cc2c(n(CC(=O)Nc3ccc(F)cn3)c3cc(C4CC4)nn3c2=O)C1=O [Example 56]
Form: Sort by [hP2X23/hP2X3* Selectivity (1321N1)] Order [ ascending ] Kindly provide the labels arranged according to the requested ordering.
C, A, B
